Listed below: pEC50 values for each entry.
target or test system: T1, 2PT-NBD1 (human CFTR nucleotide-binding domain 1, residues 387-646, with S492P, A534P, I539T) (human, UniProt P13569 388-646, biotinylated for the ELISA (sites not given))
T1 construct: N-terminal His6-SUMO tag removed with Ulp1; In the T2a-T4 and T27 crystals the domain was cut by papain or subtilisin
T1 sequence (P13569 388-646 V470M/S492P/A534P/I539T limits assumed): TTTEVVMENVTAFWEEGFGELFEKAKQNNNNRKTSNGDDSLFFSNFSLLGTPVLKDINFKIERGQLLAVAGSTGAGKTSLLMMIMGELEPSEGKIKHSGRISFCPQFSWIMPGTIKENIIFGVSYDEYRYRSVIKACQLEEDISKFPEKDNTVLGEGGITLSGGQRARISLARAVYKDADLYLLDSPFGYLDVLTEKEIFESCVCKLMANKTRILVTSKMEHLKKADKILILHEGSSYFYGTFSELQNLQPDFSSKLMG
run description: ELISA, biotinylated 2PT-NBD1 on avidin-coated plate, nanobody titrated, anti-His detection; column head 'pEC50 (M)'
property name: pEC50

Nanobody D12 (VHH, not shown: small tags and cut ends, Llama nanobody raised against 2PT-NBD1; produced in E. coli periplasm; also called Nb D12; D12 Nb) VHH: QVQLQESGGGLVQAGSSLRLACAATGSIRSINNMGWYRQAPGKQRGMVAIITRVGNTDYADSVKGRFTISRDNAKNTVYLQMNSLKPEDTATYYCHAEITEQSRPFYLTDDYWGQGTQVTVSS : 7.6
Nanobody T2a (VHH, not shown: small tags and cut ends, Llama nanobody; also called Nb T2a; T2a Nb) VHH: QVQLQESGGGLVQAGGSLRLSCAASGSIFRIDAMGWYRQAPGKQRELVAHSTSGGSTDYADSVKGRFTISRDNAKNTVYLQMNSLKPEDTAVYYCNADVRTRWYASNNYWGQGTQVTVSS : 7.9
Nanobody G3a (VHH, not shown: small tags and cut ends, Llama nanobody, non-stabilizing; also called Nb G3a; G3a Nb) VHH: QVQLQESGGGLVQAGGSLRLSCTASGRAFSWYVMGWFRQAPGKEREFVATVSGNGSRRDYADSVKGRFTISRDNAKNTVYLQMNSLKPEDTAVYYCAASSTYYYTDPEKYDYWGQGTQVTVSS : 5.8
Nanobody T27 (VHH, not shown: small tags and cut ends, Llama nanobody; also called NbT27; T27 Nb) VHH: QVQLQESGGGLEQPGGSLRLSCATSGVIFGINAMGWYRQAPGKQRELVATFTSGGSTNYADFVEGRFTISRDNAKNTVYLQMNGLRPEDTAVYYCHATVVVSRYGLTYDYWGQGTQVTVSS : 8.7
Nanobody T8 (VHH, not shown: small tags and cut ends, Llama nanobody; also called Nb T8; T8 Nb) VHH: QVQLQESGGGLVQPGGSLRLSCAASGSTSSINAMGWYRQAPGKQREPVAISSSGGDTRYAEPVKGRFTISRDNAQNKVYLQMNSLKPEDTAVYYCWLNWGRTSVNSWGQGTQVTVSS : 7.9

Entry source: patent US20220289837A1
